system: human SMAD7 mRNA; test: Antisense inhibition of human SMAD7 mRNA expression in Hep3B cells by 3-10-3 cEt gapmers, 10,000 nM, electroporation (Example 2); type: cell-based; settings: Hep3B cells, electroporation with 10,000 nM antisense oligonucleotide, approximately 24 hours, primer probe set RTS5062, relative to untreated control cells
Strand notation (5' to 3'): a small letter for the sugar, then the base; units joined by * are phosphorothioate-linked, units joined directly phosphodiester-linked; [ ] holds rarer units or linkages, { } end groups; capitals alone tell only the bases. k = constrained ethyl (cEt); [5mC] = 5-methylcytosine; d = 2'-deoxy (DNA)
measurement.name: % inhibition of SMAD7 mRNA expression (%)

INSERT INTO results (substance, study_target, measurement_name, units, recorded_number) VALUES
  ('798789 (kG*kT*kA*dT*d[5mC]*dT*dG*dG*dA*dG*dT*dA*dA*kG*kG*kA; antisense) [compound 798789]', 'human SMAD7 mRNA', '% inhibition of SMAD7 mRNA expression', '%', 44),
  ('798934 (antisense kG*k[5mC]*kA*dA*dG*d[5mC]*dA*d[5mC]*dT*d[5mC]*dA*dG*dG*kA*kG*kG) [compound 798934]', 'human SMAD7 mRNA', '% inhibition of SMAD7 mRNA expression', '%', 40),
  ('799248 (antisense kG*k[5mC]*k[5mC]*dA*d[5mC]*dG*dA*d[5mC]*dA*dG*dT*dA*dT*k[5mC]*kT*kG) [compound 799248]', 'human SMAD7 mRNA', '% inhibition of SMAD7 mRNA expression', '%', 40);
